# test.details: Inhibition of PARP1 in human Jurkat cells assessed as reduction of cell viability after 96 hrs by MTS assay in presence of 100 uM of temozolomide
Give EC50 for every item shown.
Answers are plain numbers, in µM.

Solved cases (5 shown):
> print(dat)
                                   compound  assay.result
1  COc1cc(CN2CCN(c3ccc(C(=O)NC4CC4)cc3)CC2)cc2c1OC(C)C(=O)N2 (configuration not stated)            16
2  CNC(=O)c1ccc(N2CCN(Cc3cc4c(c(OC)c3)OC(C)C(=O)N4)CC2)c(C)c1 (configuration not stated)          0.06
3  CCNC(=O)c1ccc(N2CCN(Cc3ccc4c(c3)NC(=O)C(C)O4)CC2)c(Cl)c1 (configuration not stated)             4
4  CNC(=O)c1ccc(N2CCN(Cc3ccc4c(c3)NC(=O)C(C)O4)CC2)cc1 (configuration not stated)            15
5  COc1cc(CN2CCN(c3ccc(C(=O)NC4CC4)cc3C)CC2)cc2c1OC(C)C(=O)N2 (configuration not stated)          0.02

Items follow; give EC50 for each.
1. CCNC(=O)c1ccc(N2CCN(Cc3cc4c(c(OC)c3)OC(C)C(=O)N4)CC2)cc1 (configuration not stated)
2. CCNC(=O)c1ccc(N2CCN(Cc3cc4c(c(OCC)c3)OC(C)C(=O)N4)CC2)c(C)c1 (configuration not stated)
3. Cc1cc(CN2CCN(c3ccc(C(=O)NC4CC4)cc3)CC2)cc2c1OC(C)C(=O)N2 (configuration not stated)
4. Cc1cc(CN2CCN(c3ccc(C(=O)NC4CC4)cc3Cl)CC2)cc2c1OC(C)C(=O)N2 (configuration not stated)
5. CNC(=O)c1ccc(N2CCN(Cc3cc(C)c4c(c3)NC(=O)C(C)O4)CC2)c(Cl)c1 (configuration not stated)
6. CNC(=O)c1ccc(N2CCN(Cc3cc(C)c4c(c3)NC(=O)C(C)O4)CC2)c(C)c1 (configuration not stated)

-- reply
1: 16; 2: 0.02; 3: 5; 4: 0.01; 5: 14; 6: 9

-- ask What value of EC50 has been recorded for this entry: CNC(=O)c1ccc(N2CCN(Cc3cc4c(c(OC)c3)OC(C)C(=O)N4)CC2)cc1 (configuration not stated)
-- reply 27

* * *

# test.details: Inhibition of PARP1 in human Jurkat cells assessed as reduction of cell viability after 96 hrs by MTS assay
property: EC50 (µM)
Numbers only, in µM.

Solved cases (3 shown):
> print(dat)
                                   compound  assay.result
1  CCNC(=O)c1ccc(N2CCN(Cc3cc4c(c(OC)c3)OC(C)C(=O)N4)CC2)cc1 (stereo not given)           151
2  CCNC(=O)c1ccc(N2CCN(Cc3ccc4c(c3)NC(=O)C(C)O4)CC2)c(Cl)c1 (stereo not given)           100
3  CNC(=O)c1ccc(N2CCN(Cc3cc4c(c(OC)c3)OC(C)C(=O)N4)CC2)c(C)c1 (stereo not given)           100

Items follow; give EC50 for each.
1. CCNC(=O)c1ccc(N2CCN(Cc3cc(C)c4c(c3)NC(=O)C(C)O4)CC2)c(C)c1 (stereo not given)
2. CNC(=O)c1ccc(N2CCN(Cc3cc(C)c4c(c3)NC(=O)C(C)O4)CC2)cc1 (stereo not given)

-- reply
[55, 75]
